# MEASURED TARGET: Human cytomegalovirus DNA polymerase (Human cytomegalovirus, UniProt P08546)
# Construct: made in house; host or cells: SF21 insect cells (baculovirus vector)
# Sequence (P08546 whole entry): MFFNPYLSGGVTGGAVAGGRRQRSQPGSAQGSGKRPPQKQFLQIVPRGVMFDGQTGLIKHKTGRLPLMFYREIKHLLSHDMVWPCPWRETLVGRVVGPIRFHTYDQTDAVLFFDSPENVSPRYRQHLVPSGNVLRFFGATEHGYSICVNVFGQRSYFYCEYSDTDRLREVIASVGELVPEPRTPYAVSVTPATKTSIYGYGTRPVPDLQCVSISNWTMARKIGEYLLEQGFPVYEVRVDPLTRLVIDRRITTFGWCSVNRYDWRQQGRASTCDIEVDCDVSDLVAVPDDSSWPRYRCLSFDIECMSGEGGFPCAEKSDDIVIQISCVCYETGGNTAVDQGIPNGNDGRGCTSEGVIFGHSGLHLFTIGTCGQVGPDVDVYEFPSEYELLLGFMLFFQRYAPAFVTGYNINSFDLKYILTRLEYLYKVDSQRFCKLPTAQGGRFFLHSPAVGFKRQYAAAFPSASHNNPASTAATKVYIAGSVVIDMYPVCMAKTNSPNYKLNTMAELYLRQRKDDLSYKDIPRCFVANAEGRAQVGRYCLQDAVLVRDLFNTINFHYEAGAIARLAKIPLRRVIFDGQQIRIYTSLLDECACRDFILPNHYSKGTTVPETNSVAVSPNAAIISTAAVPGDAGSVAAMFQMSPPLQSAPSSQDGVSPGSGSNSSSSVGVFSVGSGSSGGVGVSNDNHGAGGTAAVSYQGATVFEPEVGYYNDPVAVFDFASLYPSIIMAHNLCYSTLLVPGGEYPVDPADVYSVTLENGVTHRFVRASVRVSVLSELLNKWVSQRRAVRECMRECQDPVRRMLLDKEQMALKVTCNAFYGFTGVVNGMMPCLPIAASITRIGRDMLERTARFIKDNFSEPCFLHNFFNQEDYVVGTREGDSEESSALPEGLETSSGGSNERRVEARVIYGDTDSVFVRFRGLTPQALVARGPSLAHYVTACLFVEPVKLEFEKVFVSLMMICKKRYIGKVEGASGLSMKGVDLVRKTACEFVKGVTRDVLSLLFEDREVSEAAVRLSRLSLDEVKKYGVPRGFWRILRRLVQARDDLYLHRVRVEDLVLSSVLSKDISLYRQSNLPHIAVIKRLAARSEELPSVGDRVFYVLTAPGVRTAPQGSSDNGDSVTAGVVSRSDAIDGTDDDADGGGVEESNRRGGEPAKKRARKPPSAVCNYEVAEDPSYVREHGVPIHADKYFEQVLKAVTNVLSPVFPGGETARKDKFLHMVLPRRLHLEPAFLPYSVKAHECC
# METHOD SUMMARY: CMV polymerase assay (AlphaLISA)
# Type: biochemical
# CONDITION DESCRIPTION: HCMV polymerase 0.2 nM; 30 min pre-incubation; 60 min at 37° C.; read-out: CMV (IC50)
MEASURE: IC50
The answer should read as a number with its unit following.

{"columns": ["COMPOUND", "IC50"],
 "data": [
  ["COc1nc(-c2cc(C(F)(F)F)nn2C)c(O[C@H]2CCN3C(=O)OC[C@@H]3C2)cc1C(=O)NCc1ccc(Cl)cc1", "193 nM"],
  ["COc1nc(-c2cnn(CCO)c2)c(O[C@H]2CCN3C(=O)OC[C@@H]3C2)cc1C(=O)NCc1ccc(Cl)cc1", "0.705 nM"],
  ["COc1nc(-c2cnco2)c(O[C@H]2CCN3C(=O)OC[C@@H]3C2)cc1C(=O)NCc1ccc(C#N)cc1", "6.32 nM"],
  ["COc1nc(-c2cnn3c2CCC3)c(O[C@H]2CCN3C(=O)OC[C@@H]3C2)cc1C(=O)NCc1ccc(Cl)cc1", "7.58 nM"],
  ["COc1nc(N2CCC(C(C)(C)N)C2)c(O[C@H]2CCN3C(=O)OC[C@@H]3C2)cc1C(=O)NCc1ccc(Cl)cc1 (single isomer, unassigned) [Compound 72]", "45.5 nM"]
]}

Turning now to a further compound:
Looking up COc1nc(-c2ccc3cc[nH]c3c2)c(O[C@H]2CCN3C(=O)OC[C@@H]3C2)cc1C(=O)NCc1ccc(Cl)cc1 , I see its IC50 listed as 80.7 nM

* * *

# MEASURED TARGET: Human cytomegalovirus DNA polymerase (Human cytomegalovirus, UniProt P08546)
# Construct: made in house; host or cells: SF21 insect cells (baculovirus vector)
# METHOD SUMMARY: CMV polymerase assay (AlphaLISA)
# Assay type: biochemical
# CONDITION DESCRIPTION: CMV (IC50), HCMV polymerase 0.2 nM; 30 min pre-incubation; 60 min at 37° C.
MEASURE: IC50 (µM)
I only need the number, in µM, no unit after it.

Data point: COc1nc(C2CC2O)c(O[C@H]2CCN3C(=O)OC[C@@H]3C2)cc1C(=O)NCc1ccc(Cl)cc1 (single isomer, unassigned) ; IC50 = 0.0315

* * *

Each item that follows carries a reported pEC50.
# Tested on: VZV
# METHOD SUMMARY: Viral qPCR assay, VZV
# Format: cell-based, varicella zoster virus
# CONDITION DESCRIPTION: Human alphaherpesvirus 3, 72 h, MeWo or MRC5 cells, 0.04-0.1 pfu/cell, growth medium, viral genome copies by qPCR
Please note pEC50 is a logarithmic value: minus log10 of concentration in mol/L. Answer with that number alone.

// solved cases for pEC50 follow
{"columns": ["COMPOUND", "MEASURED TARGET", "MEASURE", "RESULT VALUE"],
 "data": [
  ["COc1nc(-c2cc3nccnc3[nH]2)c(O[C@H]2CCN3C(=O)OC[C@@H]3C2)cc1C(=O)NCc1ccc(Cl)cc1", "VZV", "pEC50", 6.07],
  ["COc1nc(-c2cnco2)c(O[C@H]2CCN3C(=O)OC[C@@H]3C2)cc1C(=O)NCc1ccc(Cl)cc1", "VZV", "pEC50", 6.96],
  ["COc1nc(-c2csc(-n3cccn3)n2)c(O[C@H]2CCN3C(=O)OC[C@@H]3C2)cc1C(=O)NCc1ccc(Cl)cc1", "VZV", "pEC50", 6.43],
  ["COc1nc(-c2cnc(N)nc2)c(O[C@H]2CCN3C(=O)OC[C@@H]3C2)cc1C(=O)NCc1ccc(Cl)cc1", "VZV", "pEC50", 6.85]
]}

Entry COc1nc(-c2cnn(C3CC3)c2)c(O[C@H]2CCN3C(=O)OC[C@@H]3C2)cc1C(=O)NCc1ccc(Cl)cc1 — recorded pEC50 = 6.89

Measured pEC50 of CN(C)CCCOc1nc(-c2cnn(C(F)F)c2)c(O[C@H]2CCN3C(=O)OC[C@@H]3C2)cc1C(=O)NCc1ccc(Cl)cc1 : 6.33

# compound COc1nc(C2CC(O)C2)c(O[C@H]2CCN3C(=O)OC[C@@H]3C2)cc1C(=O)NCc1ccc(Cl)cc1 (single isomer, unassigned) ; its pEC50 = 6.15

* * *

# MEASURED TARGET: Human cytomegalovirus DNA polymerase (Human cytomegalovirus)
# Construct: made in house; host or cells: SF21 insect cells (baculovirus vector)
# METHOD SUMMARY: CMV polymerase assay (AlphaLISA)
# Assay type: biochemical
# CONDITION DESCRIPTION: HCMV polymerase 0.2 nM; 30 min pre-incubation; 60 min at 37° C.; read-out: CMV (IC50)
pIC50: −log10 of the molar value.
Label Criterion met when pIC50 is at or above 8; otherwise label Criterion not met.

These recorded examples may help you get a feel for the data.
{"columns": ["COMPOUND", "GROUP"],
 "data": [
  ["CN(C)CCOc1nc(-c2cnn(C(F)F)c2)c(O[C@H]2CCN3C(=O)OC[C@@H]3C2)cc1C(=O)NCc1ccc(Cl)cc1 [Compound 88]", "Criterion met"],
  ["COc1nccc(-c2nc(OC)c(C(=O)NCc3ccc(Cl)cc3)cc2O[C@H]2CCN3C(=O)OC[C@@H]3C2)n1 [Compound 53]", "Criterion not met"],
  ["COc1nc(-c2cnn(C(F)F)c2)c(O[C@H]2CCN3C(=O)OC[C@@H]3C2)cc1C(=O)NCc1ccc(Cl)c(F)c1 [Compound 55]", "Criterion met"]
]}

Test whether the compound COc1nc(CC(C)(C)N)c(O[C@H]2CCN3C(=O)OC[C@@H]3C2)cc1C(=O)NCc1ccc(Cl)cc1 [Compound 81] records pIC50 of 8 or higher.
Criterion not met

* * *

# MEASURED TARGET: Human cytomegalovirus DNA polymerase (Human cytomegalovirus, UniProt P08546)
# Construct: made in house; host or cells: SF21 insect cells (baculovirus vector)
# METHOD SUMMARY: CMV polymerase assay (AlphaLISA)
# Type: biochemical
# CONDITION DESCRIPTION: HCMV polymerase 0.2 nM; 30 min pre-incubation; 60 min at 37° C.; read-out: CMV (IC50)
MEASURE: pIC50
Formally, pIC50 is defined as -log10 of the concentration c, with c in mol/L.

{"columns": ["MOLECULE", "MEASURE", "RESULT VALUE"],
 "data": [
  ["COc1nc(N2CC(C(C)(C)O)C2)c(O[C@H]2CCN3C(=O)OC[C@@H]3C2)cc1C(=O)NCc1ccc(Cl)cc1", "pIC50", 7.82]
]}

Value of pIC50 reported for the molecule CCn1cc(-c2nc(OC)c(C(=O)NCc3ccc(Cl)cc3)cc2O[C@H]2CCN3C(=O)OC[C@@H]3C2)cn1 is 8.29

pIC50 recorded for this molecule, COc1nc(-c2cccnc2)c(O[C@H]2CCN3C(=O)OC[C@@H]3C2)cc1C(=O)NCc1ccc(Cl)cc1 , is 7.80

Short answer for COc1nc(-c2nc(C)ns2)c(O[C@H]2CCN3C(=O)OC[C@@H]3C2)cc1C(=O)NCc1ccc(Cl)cc1 : pIC50 was 8.84

For reference, reported pIC50 for COc1nc(N2CCC(C(C)(C)N)C2)c(O[C@H]2CCN3C(=O)OC[C@@H]3C2)cc1C(=O)NCc1ccc(Cl)cc1 (single isomer, unassigned) [Compound 71] stands at 7.64

Entry under test: COc1nc(-c2cnc(N)c(F)c2)c(O[C@H]2CCN3C(=O)OC[C@@H]3C2)cc1C(=O)NCc1ccc(Cl)cc1 . Its pIC50 was 8.33

For reference, reported pIC50 for CC(C)(C#N)COc1nc(-c2cnn(C(F)F)c2)c(O[C@H]2CCN3C(=O)OC[C@@H]3C2)cc1C(=O)NCc1ccc(Cl)cc1 stands at 8.14

Notebook: COc1nc(-c2ccc(C)o2)c(O[C@H]2CCN3C(=O)OC[C@@H]3C2)cc1C(=O)NCc1ccc(Cl)cc1 , pIC50 read as 7.79

Note to self: pIC50 recorded for COc1nc(-c2cnc(C(C)(C)O)s2)c(O[C@H]2CCN3C(=O)OC[C@@H]3C2)cc1C(=O)NCc1ccc(Cl)cc1 was 8.26

For record COc1nc(-c2nc(C)no2)c(O[C@H]2CCN3C(=O)OC[C@@H]3C2)cc1C(=O)NCc1ccc(Cl)cc1 the listed pIC50 is 8.08

Please fill in: pIC50 reported for COc1nc(-c2cncc(CO)c2)c(O[C@H]2CCN3C(=O)OC[C@@H]3C2)cc1C(=O)NCc1ccc(Cl)cc1 = 7.70

Sure, the documented pIC50 for COc1nc(-c2csc(-n3cccn3)n2)c(O[C@H]2CCN3C(=O)OC[C@@H]3C2)cc1C(=O)NCc1ccc(Cl)cc1 is 7.51

Entry COc1ccc(-c2nc(OC)c(C(=O)NCc3ccc(Cl)cc3)cc2O[C@H]2CCN3C(=O)OC[C@@H]3C2)nc1 , pIC50 reported as 7.10

Cited source for all entries: patent US20240083910A1
